test system: BT-549; assay: NCI tumour cell line growth inhibition, 48 h
Active and inactive are the calls of the source. Cut-off read from the data, not from the text of the source: active = GI50 up to about 1.1 µM and inactive = higher.
The reply should name one outcome from active, inactive

Known results for compounds:
Query: Hi, do you know how COc1cc2c(cc1OC)C(=O)/C(=C/c1ccc(Cl)cc1)CC2 came out in this test?
Result: inactive

Query: Hi, do you know how CN1CCCOC(c2ccc(Cl)cc2)O1 (centres undefined) came out in this test?
Result: inactive

Query: Hi, do you know how N/C(=N\OC(=O)NC(Cl)=C(Cl)Cl)c1cc(C(F)(F)F)cc(C(F)(F)F)c1 came out in this test?
Result: inactive

Query: Hi, do you know how CC(=O)O[C@H]1C(=O)[C@@]2(C)[C@H]([C@H](OC(=O)c3ccccc3)[C@]3(O)C[C@H](OC(=O)[C@H](O)[C@@H](NC(=O)c4ccc(N)cc4)c4ccccc4)C(C)=C1C3(C)C)[C@]1(OC(C)=O)CO[C@@H]1C[C@@H]2O came out in this test?
Result: active

Now turn to the next compound.
Query: Hi, do you know how Cc1ccc(S(N)(=O)=O)cc1 [P-TOLUENESULFONAMIDE] came out in this test?
Result: inactive

* * *

system: MDA-N; assay: NCI tumour cell line growth inhibition, 48 h
Calls of active or inactive are those of the source. Rule as the data show it: active = GI50 up to about 1.1 µM and inactive = higher.
The reply should name one outcome from true (1) (active), false (0) (inactive)

Query: Hi, do you know how O=c1[nH]/c(=C/c2ccc(OCc3ccccc3)cn2)c(=O)[nH]/c1=C/c1ccc(O)cc1 came out in this test?
Result: true (1)

Query: Hi, do you know how CS(=O)(=O)c1cc(=O)c2ccccc2s1 came out in this test?
Result: false (0)

Query: Hi, do you know how CC12CCC(=O)N1c1cncnc1N2 (stereo unspecified) came out in this test?
Result: false (0)

Query: Hi, do you know how COC(=O)C1=CC2CCCC1(O)C(C(C)=O)C2 (stereo unspecified) came out in this test?
Result: false (0)

Query: Hi, do you know how COc1ccc(/C=c2\s/c(=C3/SC(=S)N(c4ccccc4)C3=O)n(-c3ccccc3)c2=O)cc1 came out in this test?
Result: false (0)

Query: Hi, do you know how COc1ccccc1C(C1=C(O)COC1=O)c1cc2c(cc1OC(C)=O)OCO2 (stereo unspecified) came out in this test?
Result: false (0)

Query: Hi, do you know how CN(C)c1ccc(/C=c2/c3ccccc3n3nc4ccccc4c23)cc1 came out in this test?
Result: false (0)

Query: Hi, do you know how O=[N+]([O-])C1=Cc2c(O)ccc(O)c2C2c3ccccc3NC12 (stereo unspecified) came out in this test?
Result: false (0)

Query: Hi, do you know how CN(C)C(=O)CO/N=C1/C(=C2/C(=O)Nc3ccccc32)Nc2ccccc21 came out in this test?
Result: false (0)

Query: Hi, do you know how C=CCOc1ccc(C2C(C(=O)OCC)C(=O)CC(C)(O)C2C(=O)OCC)cc1OC (stereo unspecified) came out in this test?
Result: false (0)

Now turn to the next compound.
Query: Hi, do you know how O=C(O)Cc1cccc2c(=O)c3cccc([N+](=O)[O-])c3oc12 came out in this test?
Result: false (0)

* * *

tested on: HCT-116; assay: NCI tumour cell line growth inhibition, 48 h
Active and inactive are the calls of the source. No stated cut-off is given here; in the data, active = GI50 up to about 1.1 µM and inactive = higher.
The reply should name one outcome from yes (1) = active, no (0) = inactive

Query: Hi, do you know how CCOC(=O)C(Cc1cn(S(=O)(=O)c2ccccc2)c2ccccc12)(NC(C)=O)C(=O)OCC came out in this test?
Result: no (0)

Query: Hi, do you know how O=C1CCCCC1=C(I)I came out in this test?
Result: no (0)

Query: Hi, do you know how Nc1ncnc2c1nc(-c1ccccc1)n2C1OC(CO)C(O)C1O (stereo unspecified) came out in this test?
Result: no (0)

Query: Hi, do you know how COC(=O)c1ccccc1C#CCCCOS(C)(=O)=O came out in this test?
Result: no (0)

Query: Hi, do you know how CC1(C)OC2COC3(CNO)OC(C)(C)OC3C2O1 (stereo unspecified) came out in this test?
Result: no (0)

Others:
Query: Hi, do you know how CC(=O)OCC1OC(n2c(C)c(C)cc(C#N)c2=S)C(OC(C)=O)C(OC(C)=O)C1OC(C)=O (stereo unspecified) came out in this test?
Result: no (0)

Query: Hi, do you know how O=c1[nH]nc(Cc2ccc(Cl)cc2)n1Nc1ccccc1 came out in this test?
Result: no (0)

Query: Hi, do you know how COc1cc(C)cc2c(-c3c(O)cc(O)c4c3C[C@H](C)N[C@H]4C)cc(-c3cc(-c4c(O)cc(O)c5c4C[C@H](C)N[C@H]5C)c4cc(C)cc(OC)c4c3O)c(O)c12 came out in this test?
Result: no (0)

Query: Hi, do you know how O=S(=O)(SCc1ccccc1)C(c1ccccc1)c1ccccc1 came out in this test?
Result: no (0)

Query: Hi, do you know how Nc1ncnc2c1ncn2C1CCC(CP(=O)(O)O)C1 (stereo unspecified) came out in this test?
Result: no (0)
